B1: KAT8 regulatory NSL complex subunit 2, residues 28 to 91; numbered along this chain, Q9H9L4 (parent)
chain: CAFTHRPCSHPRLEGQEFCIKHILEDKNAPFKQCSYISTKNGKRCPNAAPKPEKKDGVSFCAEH

Variants of: B1
Method Summary: abundance fitness (aPCA) (normalised: wild type 0, dead -1); higher = more abundant; growth selection in yeast, the domain comes from the species named
Conditions Used: Homo sapiens
The following variants are listed with their measured abundance fitness values.

Field: example entries. Status: answers known.
CAFTHRPCSHPRLEGQEFCIKHILEDKNAPFKQCSYISTKNHKRCPNAAPKPEKKDGVSFCAEH [G42H] ... -0.141
CAFTHRPCSHPRLEGQEFCIKHILEDKNAPFKQCSYISTKNGKMCPNAAPKPEKKDGVSFCAEH [R44M] ... -0.04
CAFTHRPCSHPRLEGQEFCIKHILDDKNAPFKQCSYISTKNGKRCPNAAPKPEKKDGVSFCAEH [E25D] ... -0.188
CAFRHRPCSHPRLEGQEFCIKHILEDKNAPFKQCSYISTKNGKRCPNAAPKPEKKDGVSFCAEH [T4R] ... -0.399
CAFTHRPCSHPRLEGQEFCIKHILEDKNAPFKQCSYISTKNGKRCPNAAPKPEKKDGVSFCAVH [E63V] ... -0.175
CAFTHRPCSHPRLEGQEFCIKHILEDKNAPFKQCSYISTKNGKREPNAAPKPEKKDGVSFCAEH [C45E] ... -0.193
CAFTHRPCSHPRLEGQEFCIKHILEDKNAPFKQCSYIGTKNGKRCPNAAPKPEKKDGVSFCAEH [S38G] ... -0.048
CAFTHRPCSHPRLEGQEFCIKHILEDKNAPFKQCSYISTKNGKRCPTAAPKPEKKDGVSFCAEH [N47T] ... -0.057
CAFTHRPCSHPRLEGQEFCIKHILEDDNAPFKQCSYISTKNGKRCPNAAPKPEKKDGVSFCAEH [K27D] ... -0.172
CAFTHRPCSHPRLEGQEFCIKHILEDKPAPFKQCSYISTKNGKRCPNAAPKPEKKDGVSFCAEH [N28P] ... -0.215

Specify abundance fitness for CAFTHRPCSHPRLEGQEFCIKHILEDKNTPFKQCSYISTKNGKRCPNAAPKPEKKDGVSFCAEH [A29T] and stop.
-0.133

Return abundance fitness for the following variant: CAFTHRPCSHPRLEGYEFCIKHILEDKNAPFKQCSYISTKNGKRCPNAAPKPEKKDGVSFCAEH [Q16Y]
-0.187

Report measured abundance fitness; entry is CAFTHRPCSHPRLEGQEFCIKHILEDKNAPFKQCSYISTKNGKRCPNWAPKPEKKDGVSFCAEH [A48W]
-0.333
